- system: estrogen receptor alpha (ESR1) (Homo sapiens, UniProt P03372)
- Sequence (P03372 whole entry): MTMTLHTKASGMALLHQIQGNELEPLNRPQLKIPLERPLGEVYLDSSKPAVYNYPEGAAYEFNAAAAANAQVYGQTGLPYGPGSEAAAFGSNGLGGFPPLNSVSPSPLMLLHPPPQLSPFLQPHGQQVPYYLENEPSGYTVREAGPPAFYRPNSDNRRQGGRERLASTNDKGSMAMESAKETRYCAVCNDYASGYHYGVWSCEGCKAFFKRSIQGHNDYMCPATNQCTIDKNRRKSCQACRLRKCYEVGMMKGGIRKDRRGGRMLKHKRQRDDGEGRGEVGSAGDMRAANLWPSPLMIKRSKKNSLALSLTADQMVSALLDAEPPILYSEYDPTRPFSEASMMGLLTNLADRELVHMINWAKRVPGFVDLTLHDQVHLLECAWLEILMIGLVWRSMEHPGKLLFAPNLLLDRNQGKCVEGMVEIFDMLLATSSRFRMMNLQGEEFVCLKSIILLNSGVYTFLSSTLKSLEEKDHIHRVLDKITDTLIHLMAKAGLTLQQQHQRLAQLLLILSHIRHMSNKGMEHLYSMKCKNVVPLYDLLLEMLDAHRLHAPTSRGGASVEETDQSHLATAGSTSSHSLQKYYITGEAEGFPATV
- protocol-description: cell-based
- protocol-conditions: MCF7 breast cancer cells, 4 hours; plateau of the maximal effect; DMSO and Fulvestrant define 0% and 100% changes in ESR1
- Protocol: Where more than one name is associated with a Formula I compound or intermediate, the chemical structure shall define the compound. Cell plates were incubated at 37° C., for 4 hours. Fixation and permeabilization were carried out using a Biotek EL406 plate washer and dispenser as follows. […] Samples were incubated 30 minutes. […] Quantitative fluorescence imaging of ESR1 was carried out using a Cellomics Arrayscan V (Thermo). […]
reported-metric: ER-alpha MCF7 HCS Sinf (%)
Please reply with the bare figure in % and do not write the unit itself.

Give a short answer stating reported ER-alpha MCF7 HCS Sinf for O=C(c1ccc(OCCN2CC(CF)C2)cc1)c1c(-c2ccc(F)c(F)c2)sc2cc(O)ccc12 [Example 35] .
−98
